The reported numbers originate from patent US20260116991A1.

MEASURED_TARGET: T1, monkey GPC3-His protein (monkey)
T1 construct: Bought recombinant protein; also called monkey GPC3 protein
TEST: ELISA, monkey GPC3-His coated;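 further: Plate-coated antigen at 1 µg/mL, antibody binding 2 h at 37 °C, detected with HRP-labeled secondary antibody and TMB, absorbance at 450 nm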
MEASUREMENT_KIND: OD450 at 0.001 nM

Lab book: OD450 at 0.001 nM of F2.23.8 (antibody, human IgG1, kappa, V domains shown, Human-murine chimeric antibody) VH: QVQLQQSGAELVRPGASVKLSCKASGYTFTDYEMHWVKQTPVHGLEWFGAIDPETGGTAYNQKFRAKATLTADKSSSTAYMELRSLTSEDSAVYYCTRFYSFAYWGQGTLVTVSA VL: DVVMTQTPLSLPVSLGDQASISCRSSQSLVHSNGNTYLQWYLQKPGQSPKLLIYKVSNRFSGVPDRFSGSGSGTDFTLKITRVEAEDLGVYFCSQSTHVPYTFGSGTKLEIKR noted as 0.28 OD450

Lab book: OD450 at 0.001 nM of F1.62.9 (antibody, human IgG1, kappa, V domains shown, Human-murine chimeric antibody) VH: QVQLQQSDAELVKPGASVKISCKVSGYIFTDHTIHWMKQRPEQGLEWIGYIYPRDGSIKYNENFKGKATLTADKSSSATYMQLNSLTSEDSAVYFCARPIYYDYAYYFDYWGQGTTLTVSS VL: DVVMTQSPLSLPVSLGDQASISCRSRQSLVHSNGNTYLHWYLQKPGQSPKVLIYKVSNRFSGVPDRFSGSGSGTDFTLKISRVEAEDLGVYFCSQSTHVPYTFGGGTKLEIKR noted as 0.36 OD450

Lab book: OD450 at 0.001 nM of F1.92.17 (antibody, human IgG1, kappa, V domains shown, Human-murine chimeric antibody) VH: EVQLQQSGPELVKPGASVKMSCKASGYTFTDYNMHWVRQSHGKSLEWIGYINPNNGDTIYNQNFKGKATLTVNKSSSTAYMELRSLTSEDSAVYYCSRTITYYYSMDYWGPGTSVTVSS VL: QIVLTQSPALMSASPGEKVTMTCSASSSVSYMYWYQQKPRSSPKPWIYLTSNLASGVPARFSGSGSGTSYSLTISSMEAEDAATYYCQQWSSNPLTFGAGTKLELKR noted as 0.05 OD450
